Source: the supplement of paper PMC5998384

- Test system: HeLa Kyoto;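 note: synchronized HeLa Kyoto cells (double thymidine block for G1/S, nocodazole release for mitosis), protein amounts in NP-40 versus SDS lysates quantified by mass spectrometry, three biological replicates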
- Assay remarks: solubility change mitosis vs G1/S (difference of NP-40 vs SDS log2 ratios) (log2 ratio difference); higher = more soluble in mitosis
Measured quantity: solubility change mitosis (log2)
One number for each entry.

MAAQCVRLARRSLPALALSLRPSPRLLCTATKQKNSGQNLEEDMGQSEQKADPPATEKTLLEEKVKLEEQLKETVEKYKRALADTENLRQRSQKLVEEAKLYGIQAFCKDLLEVADVLEKATQCVPKEEIKDDNPHLKNLYEGLVMTEVQIQKVFTKHGLLKLNPVGAKFDPYEHEALFHTPVEGKEPGTVALVSKVGYKLHGRTLRPALVGVVKEA [GRPEL1] :: 0.707
MVPPVQVSPLIKLGRYSALFLGVAYGATRYNYLKPRAEEERRIAAEEKKKQDELKRIARELAEDDSILK [ATP5I] :: 0.197
MGFNLTFHLSYKFRLLLLLTLCLTVVGWATSNYFVGAIQEIPKAKEFMANFHKTLILGKGKTLTNEASTKKVELDNCPSVSPYLRGQSKLIFKPDLTLEEVQAENPKVSRGRYRPQECKALQRVAILVPHRNREKHLMYLLEHLHPFLQRQQLDYGIYVIHQAEGKKFNRAKLLNVGYLEALKEENWDCFIFHDVDLVPENDFNLYKCEEHPKHLVVGRNSTGYRLRYSGYFGGVTALSREQFFKVNGFSNNYWGWGGEDDDLRLRVELQRMKISRPLPEVGKYTMVFHTRDKGNEVNAERMKLLHQVSRVWRTDGLSSCSYKLVSVEHNPLYINITVDFWFGA [B4GALT4] :: -0.14
MRDRLPDLTACRKNDDGDTVVVVEKDHFMDDFFHQVEEIRNSIDKITQYVEEVKKNHSIILSAPNPEGKIKEELEDLNKEIKKTANKIRAKLKAIEQSFDQDESGNRTSVDLRIRRTQHSVLSRKFVEAMAEYNEAQTLFRERSKGRIQRQLEITGRTTTDDELEEMLESGKPSIFTSDIISDSQITRQALNEIESRHKDIMKLETSIRELHEMFMDMAMFVETQGEMINNIERNVMNATDYVEHAKEETKKAIKYQSKARRKKWIIIAVSVVLVAIIALIIGLSVGK [STX2] :: 0.0333

Go through the items and report each one's solubility change mitosis (log2).
1. MSSIGTGYDLSASTFSPDGRVFQVEYAMKAVENSSTAIGIRCKDGVVFGVEKLVLSKLYEEGSNKRLFNVDRHVGMAVAGLLADARSLADIAREEASNFRSNFGYNIPLKHLADRVAMYVHAYTLYSAVRPFGCSFMLGSYSVNDGAQLYMIDPSGVSYGYWGCAIGKARQAAKTEIEKLQMKEMTCRDIVKEVAKIIYIVHDEVKDKAFELELSWVGELTNGRHEIVPKDIREEAEKYAKESLKEEDESDDDNM [PSMA3]
2. MHRRGVGAGAIAKKKLAEAKYKERGTVLAEDQLAQMSKQLDMFKTNLEEFASKHKQEIRKNPEFRVQFQDMCATIGVDPLASGKGFWSEMLGVGDFYYELGVQIIEVCLALKHRNGGLITLEELHQQVLKGRGKFAQDVSQDDLIRAIKKLKALGTGFGIIPVGGTYLIQSVPAELNMDHTVVLQLAEKNGYVTVSEIKASLKWETERARQVLEHLLKEGLAWLDLQAPGEAHYWLPALFTDLYSQEITAEEAREALP [SNF8]

Outgoing:
[-0.0697, 0.0161]
